System: SR leukemia
assay.details: NCI tumour cell line growth inhibition, 48 h
Here the recorded TGI is given for each entry.

[
  {
    "molecule": "O=C(NC[C@H](O)CO)c1ccncc1Nc1ccc(I)cc1F",
    "TGI": "> 100 µM"
  },
  {
    "molecule": "COc1cc(C2c3cc4c(cc3OC(NNC(N)=O)C2C)OCO4)cc(OC)c1O (stereo unspecified)",
    "TGI": "> 100 µM"
  },
  {
    "molecule": "CCc1cccc(C)c1NC(=O)C(=O)Cc1nc2ccccc2s1",
    "TGI": "> 100 µM"
  },
  {
    "molecule": "O=S1(=O)OCCOS(=O)(=O)C1Cc1ccccc1",
    "TGI": "> 100 µM"
  },
  {
    "molecule": "Cc1cc(N2CCCC2)nc(N(CCNc2ccnc3cc(Cl)ccc23)Cc2ccco2)n1",
    "TGI": "4.67 µM"
  },
  {
    "molecule": "Cc1[nH]c2ccccc2c1C1Cc2ccccc2N1C(=O)/C=C/C(=O)O (stereo unspecified)",
    "TGI": "> 100 µM"
  }
]
